Here, each record is paired with measured normalized SmoIP GFP fluorescence data.
# Tested on: Drosophila S2 cl14 SmoIP sensor cells
# Test Name: normalized SmoIP GFP fluorescence (untreated unstimulated = 0%, untreated Hh-stimulated = 100%); higher = more Smo activation sensor fluorescence
# Study Conditions: stimulation: Hh conditioned medium (+Hh); compound concentration: 2 uM; 24 h
Structures can show the parent of a compound that is named as a salt.
Assay Readout: normalized SmoIP GFP fluorescence (%)

Compound	Value Reported
Cn1cc(-c2ccc3ncc(Cc4ccc5ncccc5c4)n3n2)cn1	123
Cc1nn(-c2ccccc2)c(C)c1C=NN1CCN(Cc2ccccc2)CC1 [sant-1]	103
Nc1nc(Nc2ccc(S(N)(=O)=O)cc2)nn1C(=O)c1c(F)cccc1F	205
O=C(NCc1cccc(O)c1)Nc1nc(-c2ccncc2)cs1	107
CCCCOc1cc(C(=O)NCCN(CC)CC)c2ccccc2n1 [dibucaine-cinchocaine-hcl]	113
CC[C@H](CO)Nc1nc(NCc2ccccc2)c2ncn(C(C)C)c2n1 [Roscovitine]	121
C[C@@H](Oc1cc(-n2cnc3ccc(CN4CCN(C)CC4)cc32)sc1C(N)=O)c1ccccc1C(F)(F)F	113
CCOc1nc2cccc(C(=O)O)c2n1Cc1ccc(-c2ccccc2-c2noc(=O)[nH]2)cc1 [azilsartan-tak-536]	104
Nc1cccc2c1C(=O)N(C1CCC(=O)NC1=O)C2=O (stereo not drawn) [Pomalidomide(CC-4047)]	103
CC(C)N(CCC(=O)c1ccc2ccccc2c1)Cc1ccccc1	119
CC(=O)OCC(=O)NCCCOc1cccc(CN2CCCCC2)c1 [roxatidine-acetate-hcl]	142
O=C(Oc1cc(S(=O)(=O)c2ccccc2)ccc1[N+](=O)[O-])c1ccc(Cl)cc1	146
CC(C)(C)NS(=O)(=O)c1cncc(-c2cc(F)c3nc(N)nn3c2)c1	104
C[C@H](NC(=O)/C(C#N)=C/c1cccc(Br)n1)c1ccccc1	86.1
CC1(C)CCC(c2ccc(Cl)cc2)=C(CN2CCN(c3ccc(C(=O)NS(=O)(=O)c4ccc(N[C@H](CCN5CCOCC5)CSc5ccccc5)c(S(=O)(=O)C(F)(F)F)c4)cc3)CC2)C1	108
CCCSc1nc(N[C@@H]2C[C@H]2c2ccc(F)c(F)c2)c2nnn([C@@H]3C[C@H](OCCO)[C@@H](O)[C@H]3O)c2n1 [ticagrelor]	113
CN(C)[C@@H](CCOc1cccc2ccccc12)c1ccccc1 [Dapoxetine-hydrochloride(Priligy)]	115
NS(=O)(=O)C#Cc1ccccc1 [pifithrin-u]	103

###

# Test system: Drosophila S2 cl14 SmoIP sensor cells
# Test Name: normalized SmoIP GFP fluorescence (untreated unstimulated = 0%, untreated Hh-stimulated = 100%); higher = more Smo activation sensor fluorescence
# Study Conditions: stimulation: Hh conditioned medium (+Hh); compound concentration: 2 uM; 24 h
Counter-ions that a name gives are not always drawn.
Below: a set of entries, each annotated with reported normalized SmoIP GFP fluorescence.

Compound	Unit Annotation	normalized SmoIP GFP fluorescence
Cc1ccccc1-n1c(Cn2nc(-c3cccc(O)c3)c3c(N)ncnc32)nc2cccc(C)c2c1=O	%	101
COc1ccc2cc(CCC(C)=O)ccc2c1	%	103
CC(=O)Nc1nc2c(Oc3cc(-c4ccc(C(F)(F)F)cc4)ncn3)cccc2s1	%	111
CN1CCc2nc(C(=O)N[C@@H]3C[C@@H](C(=O)N(C)C)CC[C@@H]3NC(=O)C(=O)Nc3ccc(Cl)cn3)sc2C1	%	106
Cc1ccc(NC(=O)c2cccc(N(C)C)c2)cc1NC(=O)c1ccc(O)cc1	%	120
Cc1c(CN2CCN(C(=O)[C@H](C)O)CC2)sc2c(N3CCOCC3)nc(-c3cnc(N)nc3)nc12	%	69.8
CO[C@H]1/C=C\C=C(/C)C(=O)NC2=CC(=O)C(NCCN(C)C)=C(C[C@@H](C)C[C@H](OC)[C@H](O)[C@@H](C)/C=C(\C)[C@@H]1OC(N)=O)C2=O [17-DMAG,Hydrochloride-Salt]	%	219
Cc1ccc(Nc2nccc(N(C)c3ccc4c(C)n(C)nc4c3)n2)cc1S(N)(=O)=O [pazopanib]	%	107
Cc1ccc(NC(=O)c2ccc(CN3CCN(C)CC3)cc2)cc1Nc1nc(-c2cccnc2)cs1	%	113
C=C[C@@]1(C)CC(=O)[C@]2(O)[C@@]3(C)[C@@H](O)CCC(C)(C)[C@@H]3[C@H](O)[C@H](OC(C)=O)[C@@]2(C)O1	%	137
COc1cc(-c2ncn(/C=C\C(=O)OC(C)C)n2)cc(C(F)(F)F)c1	%	98.3
Cn1cc(-c2ccc3c(c2)CCN3C(=O)Cc2cccc(C(F)(F)F)c2)c2c(N)ncnc21	%	131
CCc1cc2c(cc1CC)CC(NC[C@H](O)c1ccc(O)c3[nH]c(=O)ccc13)C2 [indacaterol-maleate]	%	107
Fc1ccc([C@@H]2CCNC[C@H]2COc2ccc3c(c2)OCO3)cc1 [paroxetine-hcl]	%	103
CC(=O)O/N=C1\C(=O)N(Cc2cc(Cl)ccc2Cl)c2ccc(Cl)cc21	%	106
CO[C@H]1C[C@@H]2CC[C@@H](C)[C@@](O)(O2)C(=O)C(=O)N2CCCC[C@H]2C(=O)O[C@H]([C@H](C)C[C@@H]2CC[C@@H](OC(=O)C(C)(CO)CO)[C@H](OC)C2)CC(=O)[C@H](C)/C=C(\C)[C@@H](O)[C@@H](OC)C(=O)[C@H](C)C[C@H](C)/C=C/C=C/C=C/1C	%	56.5
O=C(NCCS(=O)(=O)c1ccc(C(F)(F)F)cn1)c1ccc(Cl)cc1	%	120
Cc1ccc(S(=O)(=O)NC(=O)NN2CC3CCCC3C2)cc1 (stereo not drawn) [gliclazide-diamicron]	%	111
COc1ccc(-c2ccc3c(N4CCOC[C@@H]4C)nc(N4CCOC[C@@H]4C)nc3n2)cc1CO	%	61.4
CCN(CC)CCOc1ccc(/C(=C(\Cl)c2ccccc2)c2ccccc2)cc1 [Clomifene-citrate-Serophene]	%	139
COc1cc(Nc2ncc(F)c(Nc3ccc4c(n3)NC(=O)C(C)(C)O4)n2)cc(OC)c1OC	%	112
CCOC(=O)[C@H](CCc1ccccc1)N[C@@H](C)C(=O)N1CCC[C@H]1C(=O)O [Enalapril-maleate(Vasotec)]	%	97.8
CN1CCc2c(c3ccccc3n2Cc2ccc(C(=O)NO)cc2)C1	%	108
CCOC(=O)[C@H](CCc1ccccc1)N[C@@H](C)C(=O)N1[C@@H](C(=O)O)C[C@@H]2CCC[C@@H]21	%	137
O=C(NOCC1CC1)c1ccc(F)c(F)c1Nc1ccc(I)cc1Cl	%	112
CC(C)[C@H](O)C(=O)N[C@@H](C)C(=O)N[C@@H]1C(=O)N(C)CCc2ccccc21	%	98.8
OCCn1cc(-c2ccc3c(c2)CC/C3=N\O)c(-c2ccncc2)n1	%	97.5
CC1CCc2cc(F)cc3c(=O)c(C(=O)O)cn1c23 (stereo not drawn)	%	106
Clc1ccc2c(c1)CCc1cccnc1C2=C1CCNCC1	%	109
Cc1ccc(NCCCc2ccccc2)c(N)c1	%	224
O=C(O)c1cc2cccc([N+](=O)[O-])c2[nH]1	%	136
CCN(CC)CCOC(=O)c1ccc(N)cc1 [procaine-novocaine-hcl]	%	107
Cn1cc(-c2cnn3c(N)c(Br)c([C@@H]4CCCNC4)nc23)cn1	%	185

###

# Test system: Drosophila S2 cl14 SmoIP sensor cells;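 also: flow cytometry read-out as median GFP intensity of gated cells, compounds added 30 min before Hh-conditioned or mock medium, mock-treated cells serving as unstimulated baseline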
# Test Name: normalized SmoIP GFP fluorescence (untreated unstimulated = 0%, untreated Hh-stimulated = 100%); higher = more Smo activation sensor fluorescence
# Study Conditions: stimulation: Hh conditioned medium (+Hh); compound concentration: 2 uM; 24 h
Structures can show the parent of a compound that is named as a salt.
Assay Readout: normalized SmoIP GFP fluorescence (%)

> print(dat)
                                    molecule                      assay.readout  value.reported
 1  CNC(=O)[C@H](Cc1ccccc1)NC(=O)[C@H](CC(C)C)[C@H](CSc1cccs1)C(=O)NO  normalized SmoIP GFP fluorescence            94.8
 2  O=c1cc(-c2ccc(O)cc2)oc2cc(O)cc(O)c12 [Apigenin]  normalized SmoIP GFP fluorescence             140
 3  COc1cc2ncnc(Sc3nnc(C)s3)c2cc1OC [sklb1002]  normalized SmoIP GFP fluorescence             107
 4  NC(=O)Nc1sc(-c2ccc(F)cc2)cc1C(N)=O [tpca-1]  normalized SmoIP GFP fluorescence             106
 5  Cc1cc(F)c(Nc2ncnc3cc(OCc4ccccc4)ccc23)cc1O  normalized SmoIP GFP fluorescence             104
 6  O=C(c1ccc(OCCN2CCCCC2)cc1)c1c(-c2ccc(O)cc2)sc2cc(O)ccc12 [Evista]  normalized SmoIP GFP fluorescence             118
 7  C[C@H](NC(=O)Cc1cc(F)cc(F)c1)C(=O)N[C@H](C(=O)OC(C)(C)C)c1ccccc1  normalized SmoIP GFP fluorescence             146
 8  O=C1NC(=O)/C(=C/c2ccc3nccc(-c4ccncc4)c3c2)S1  normalized SmoIP GFP fluorescence             175
 9  Cc1cc(Nc2cc(N3CCN(C)CC3)nc(/C=C/c3ccccc3)n2)n[nH]1  normalized SmoIP GFP fluorescence             136
10  Nc1cc(F)ccc1NC(=O)/C=C/c1cnn(C/C=C/c2ccccc2)c1 [rgfp966]  normalized SmoIP GFP fluorescence             112
11  CC(C)(C)C#Cc1cc(N(C(=O)[C@H]2CC[C@H](C)CC2)[C@H]2CC[C@H](O)CC2)c(C(=O)O)s1  normalized SmoIP GFP fluorescence             118
12  CC(C)C[C@H](NC(=O)[C@H](Cc1ccccc1)NC(=O)c1cnccn1)B(O)O [Bortezomib]  normalized SmoIP GFP fluorescence            70.3
13  CCCc1nn(C)c2c(=O)[nH]c(-c3cc(S(=O)(=O)N4CCN(C)CC4)ccc3OCC)nc12 [Sildenafil-citrate]  normalized SmoIP GFP fluorescence            76.3
14  COc1ccccc1OCCNCC(O)COc1cccc2[nH]c3ccccc3c12 (stereo not drawn) [carvedilol]  normalized SmoIP GFP fluorescence             118
15  CN1CCC[C@@H]1CCO[C@](C)(c1ccccc1)c1ccc(Cl)cc1 [Clemastine-Fumarate]  normalized SmoIP GFP fluorescence             104
16  COC(=O)C1=C(C#N)NC(C)=C(C(=O)OC(C)C)C1c1cccc([N+](=O)[O-])c1 (stereo not drawn) [nilvadipine-arc029]  normalized SmoIP GFP fluorescence             110
17  O=C1CN2Cc3c(ccc(Cl)c3Cl)N=C2N1 [anagrelide-hydrochloride]  normalized SmoIP GFP fluorescence             108
18  C#C[C@]1(OC(C)=O)CC[C@H]2[C@@H]3CCC4=C[C@@H](OC(C)=O)CC[C@@H]4[C@H]3CC[C@@]21C [ethynodiol-diacetate]  normalized SmoIP GFP fluorescence             100
